B1: FAM107A (parent)
chain: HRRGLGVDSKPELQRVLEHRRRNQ

Variants of: B1
procedureText: protein stability index of a GFP-peptide fusion (GPS, HEK-293T) (PSI 1-6); higher = more stable;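 also: lentivirally expressed fusions sorted by FACS into six bins by GFP to DsRed ratio, PSI derived from sequencing read proportions per bin multiplied by bin number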
conditionLabel: c terminus: a fixed tail appended

sequenceString	protein stability index
HRRGLGVDSKPELVRVLEHRRRNQ	3.86
HRRGLGVMSKPELQRVLEHRRRNQ	3.18
HGRGLGVDSKPELQRVLEHRRRNQ	4.84
HRRGLGVDSKPEAQRVLEHRRRNQ	4.31
HRRGLGVDSKPEFQRVLEHRRRNQ	4.75
HRWGLGVDSKPELQRVLEHRRRNQ	4.22
HRKGLGVDSKPELQRVLEHRRRNQ	4.52
HRRGLGVDSKPELQRVGEHRRRNQ	5.21
HRRGLGVYSKPELQRVLEHRRRNQ	2.41
HRRGLGVDSKPELQRVLAHRRRNQ	3.57
HRRGYGVDSKPELQRVLEHRRRNQ	4.66
LRRGLGVDSKPELQRVLEHRRRNQ	4.8
HRRGLGVDSKPEHQRVLEHRRRNQ	4.93
ERRGLGVDSKPELQRVLEHRRRNQ	4.92
HRRGLGVDSKPEMQRVLEHRRRNQ	4

// data source = the supplement of paper PMC10567573
